I'd appreciate it if you could supply T90 in days (±SEM) in P100 plasma values for the items below.
# Assay type: in vitro ADME, human
# testParameters: storage at −35 °C, 50 nM, n = 4, thawed once, up to 1 month; T90 extrapolated
Where no end group is shown, it is not given here.

T90 in days (±SEM) in P100 plasma reading for SGSLSTFFRLFNRSFTQALGK [Q176] : 16.4 (±6.98) days

T90 in days (±SEM) in P100 plasma reading for SNLVECVFSLFKKCN [Q076] : 20.4 (±13.67) days

T90 in days (±SEM) in P100 plasma reading for SDLPFEH [Q164, SDLPFEH] : 33.8 (±45.91) days

T90 in days (±SEM) in P100 plasma reading for SIFTLVA [Q184, SIFTLVA] : 2.56 (±0.21) days
